Data provenance: patent US20220016112A1

EC50 values for the molecules below.
Test system: Human RSV-A (“Long” strain)
ASSAY NAME: RSV in vitro cytoprotection assay in HEp-2 cells (ATPlite readout)
Type: cell-based
ASSAY SETUP: human respiratory syncytial virus, 96 h; HEp-2 cells, genotype A “Long” strain RSV, 4-day incubation, ATPlite; read-out: Human RSV-A (“Long” strain) EC50

Recorded results for 8 molecules are shown here.
Cc1cnc(N2CC3(CCOCC3)C2)c(C(=O)Nc2ccc(C(=O)N3c4ccccc4N=C(c4ccc(C(=O)NC5CC5)cc4)[C@@H]3C)cc2)c1 ... > 50 nM
Cc1cnc(N2CC3(CCOCC3)C2)c(C(=O)Nc2ccc(C(=O)N3c4ccccc4N=C(c4ccc(C(=O)NC56CC(C)(C5)C6)s4)[C@H]3C)cc2)c1 ... < 10 nM
C[C@@H]1C(c2ccc(C(=O)NC3CCC3)s2)=Nc2ccccc2N1C(=O)c1ccc(NC(=O)c2cc(C(F)(F)F)cnc2N2CC3(CCOCC3)C2)cc1 ... 10 to 50 nM
Cc1cnc(N2CC3(CCOCC3)C2)c(C(=O)Nc2ccc(C(=O)N3c4ccccc4N=C(c4ccc(C(=O)Nc5c(C)cccc5F)s4)[C@@H]3C)cc2)c1 ... > 50 nM
C[C@@H]1C(c2ccc(C(=O)NC3CCC3)s2)=Nc2ccccc2N1C(=O)c1ccc(NC(=O)c2cc(C3CC3)cnc2N2CC3(CCOCC3)C2)cc1 ... < 10 nM
Cc1cnc(N2CC3(CCOCC3)C2)c(C(=O)Nc2ccc(C(=O)N3c4ccccc4N=C(c4ccc(C(=O)NC5(C)CCC5)s4)[C@H]3C)cc2)c1 ... < 10 nM
Cc1cnc(N2CC3(CCOCC3)C2)c(C(=O)Nc2ccc(C(=O)N3c4ccccc4N=C(c4ccc(C(=O)NC5CCC5)s4)C3(C)C)cc2)c1 ... < 10 nM
Cc1cnc(N2CC3(CCOCC3)C2)c(C(=O)Nc2ccc(C(=O)N3c4ncccc4N=C(c4ccc(C(=O)NC5CC5)s4)[C@H]3C)cc2)c1 ... > 50 nM

Query block: Which EC50 is reported for this molecule? CCc1cnc(N2CC3(CCOCC3)C2)c(C(=O)Nc2ccc(C(=O)N3c4ccccc4N=C(c4ccc(C(=O)NC5CC5)s4)[C@H]3C)cc2)c1
Result block: < 10 nM

Query block: Which EC50 is reported for this molecule? C[C@@H]1C(c2ccc(C(=O)NC3CC3)s2)=Nc2ccccc2N1C(=O)c1ccc(NC(=O)c2cc(C(F)(F)F)cnc2N2CC3(CCOCC3)C2)cc1
Result block: 10 to 50 nM

###

System: Human RSV-A (“Long” strain)
ASSAY NAME: RSV in vitro cytoprotection assay in HEp-2 cells (ATPlite readout)
Format: cell-based
ASSAY SETUP: human respiratory syncytial virus, 96 h; HEp-2 cells, genotype A “Long” strain RSV, 4-day incubation, ATPlite; read-out: Human RSV-A (“Long” strain) EC50
ASSAY READOUT: EC50

C[C@@H]1C(c2ccc(C(=O)NC3CCC3)s2)=Nc2ccccc2N1C(=O)c1ccc(NC(=O)c2cc3c(nc2N2CC4(CCOCC4)C2)CCC3)cc1 ... < 10 nM
Cc1cnc(N2CC3(CCOCC3)C2)c(C(=O)Nc2ccc(C(=O)N3c4ccccc4N=C(c4ccc(C(=O)NC5CC5)s4)C3(C)C)cc2)c1 ... > 50 nM
Cc1ccc(C(=O)Nc2ccc(C(=O)N3c4ccccc4N=C(c4ccc(C(=O)NC5CC5)s4)[C@H]3C)cc2)c(N2CC3(CCOCC3)C2)n1 ... < 10 nM
Cc1cnc(N2CC3(CCOCC3)C2)c(C(=O)Nc2ccc(C(=O)N3c4ccccc4N=C(c4ccc(C(=O)NC5CC5)cc4)[C@H]3C)cc2)c1 ... > 50 nM
Cc1cnc(N2CC3(CCOCC3)C2)c(C(=O)Nc2ccc(C(=O)N3c4ccccc4N=C(c4ccc(C(=O)Nc5c(C)cccc5F)s4)[C@H]3C)cc2)c1 ... 10 to 50 nM
CCc1cnc(N2CC3(CCOCC3)C2)c(C(=O)Nc2ccc(C(=O)N3c4ccccc4N=C(c4ccc(C(=O)NC5CCC5)s4)[C@H]3C)cc2)c1 ... < 10 nM
C[C@@H]1C(c2ccc(C(=O)NC3CC3)s2)=Nc2ccccc2N1C(=O)c1ccc(NC(=O)c2cc3c(nc2N2CC4(CCOCC4)C2)CCC3)cc1 ... < 10 nM
Cc1cnc(N2CC3(CCOCC3)C2)c(C(=O)Nc2ccc(C(=O)N3c4ccccc4N=C(c4ccc(C(=O)NC56CC(C5)C6)s4)[C@H]3C)cc2)c1 ... < 10 nM

Query block: Which EC50 is reported for this compound? Cc1cnc(N2CC3(CCOCC3)C2)c(C(=O)Nc2ccc(C(=O)N3c4ccccc4N=C(c4ccc(C(=O)NC5CC5)s4)[C@@H]3C)cc2)c1
Result block: 10 to 50 nM

Query block: Which EC50 is reported for this compound? Cc1cnc(N2CC3(CCOCC3)C2)c(C(=O)Nc2ccc(C(=O)N3c4ccccc4N=C(c4ccc(C(=O)NC5CCC5)s4)[C@H]3C)cc2)c1
Result block: < 10 nM

Query block: Which EC50 is reported for this compound? C[C@@H]1C(c2ccc(C(=O)NC3CC3)s2)=Nc2ccccc2N1C(=O)c1ccc(NC(=O)c2cc(C3CC3)cnc2N2CC3(CCOCC3)C2)cc1
Result block: < 10 nM

Query block: Which EC50 is reported for this compound? Cc1cnc(N2CC3(CCOCC3)C2)c(C(=O)Nc2ccc(C(=O)N3c4ccccc4N=C(c4ccc(C(=O)Nc5c(C)cccc5F)cc4)[C@H]3C)cc2)c1
Result block: > 50 nM

Query block: Which EC50 is reported for this compound? Cc1cnc(N2CC3(CCOCC3)C2)c(C(=O)Nc2ccc(C(=O)N3c4ccccc4N=C(c4ccc(C(=O)NC5CCC5)s4)[C@@H]3C)cc2)c1
Result block: > 50 nM

Query block: Which EC50 is reported for this compound? Cc1cnc(N2CC3(CCOCC3)C2)c(C(=O)Nc2ccc(C(=O)N3c4ccccc4N=C(c4ccc(C(=O)NC5CC(F)(F)C5)s4)[C@H]3C)cc2)c1
Result block: 10 to 50 nM

Query block: Which EC50 is reported for this compound? Cc1cnc(N2CC3(CCOCC3)C2)c(C(=O)Nc2ccc(C(=O)N3c4ccccc4N=C(c4ccc(C(=O)NC5(C)CC5)s4)[C@H]3C)cc2)c1
Result block: < 10 nM
